Sourced from patent US20220305090A1

- Test system: human normal hair papilla cells HFDPC-C
- PROTOCOL SUMMARY: Cell growth test on hair papilla cells (neutral red method, living cell number vs purified water control)
- Assay type: cell-based
- CONDITION DESCRIPTION: final concentration 0.05 mM, 72 hours culture, control = 100
MEASUREMENT LABEL: Growth rate control = 100

Give its Growth rate control = 100 value. Item: N=C(N)NCCC[C@H](N)C(=O)O [Arg, arginine, reference compound] 93 ± 6%

---

- System: human normal hair papilla cells HFDPC-C
- PROTOCOL SUMMARY: Cell growth test on hair papilla cells (neutral red method, living cell number vs purified water control)
- Assay type: cell-based
- CONDITION DESCRIPTION: final concentration 0.05 mM, 72 hours culture, control = 100
Item-by-item account of Growth rate control = 100
Please reply with the bare figure in % and do not write the unit itself.

{"columns": ["COMPOUND", "TARGET UNDER TEST", "Growth rate control = 100 [%]"],
 "data": [
  ["C[C@H](N)C(=O)O [Ala, alanine, reference compound]", "human normal hair papilla cells HFDPC-C", 94],
  ["O=C(O)[C@@H]1CCCN1 [Pro, proline, reference compound]", "human normal hair papilla cells HFDPC-C", 91],
  ["O=C(O)[C@@H]1C[C@@H](O)CN1 [O, hydroxyproline]", "human normal hair papilla cells HFDPC-C", 114],
  ["NC(=O)CC[C@H](N)C(=O)O [Gln, glutamine, reference compound]", "human normal hair papilla cells HFDPC-C", 92],
  ["NCC(=O)O.O=C(O)[C@@H]1CCCN1 [GP, glycine-proline]", "human normal hair papilla cells HFDPC-C", 105]
]}

Now, please, on to the next compound.
Give its Growth rate control = 100 value. Item: NCC(=O)O.O=C(O)[C@@H]1CCCN1 [PG, proline-glycine] 120
